# Test system: NCI-H2009
# ASSAY EXPLANATION: relative viability (nuclei count vs DMSO), 5 days (fraction); higher = more cells survive
# MEASUREMENT SETUP: first compound 4 µM
Recorded measurements of relative viability, one per entry
Please respond with just the number, no unit label.

# annotated cases, reported relative viability shown
C[C@@H]1CN(CC(=O)Nc2ccc3c(c2)Cc2cccc(-c4cc(=O)cc(N5CCOCC5)o4)c2S3)C[C@H](C)O1 + Cc1cc(Nc2cc(N3CCN(C)CC3)nc(Sc3ccc(NC(=O)C4CC4)cc3)n2)n[nH]1 [Tozasertib] (partner 0.1 µM) ... 0.503
C[C@@H]1CN(CC(=O)Nc2ccc3c(c2)Cc2cccc(-c4cc(=O)cc(N5CCOCC5)o4)c2S3)C[C@H](C)O1 + CC(C)C[C@H](NC(=O)[C@H](Cc1ccccc1)NC(=O)c1cnccn1)B(O)O [Bortezomib] (partner 0.002 µM) ... 0.714
COc1cc(N2CCC(C(N)=O)CC2)ccc1Nc1nc(N)c(Cl)c(Nc2ccccc2S(=O)(=O)C(C)C)n1 [HG-5-88-01] + O=C(c1cc(Cc2n[nH]c(=O)c3ccccc23)ccc1F)N1CCN(C(=O)C2CC2)CC1 [Olaparib] (partner 8 µM) ... 0.684
COc1cc(N2CCC(C(N)=O)CC2)ccc1Nc1nc(N)c(Cl)c(Nc2ccccc2S(=O)(=O)C(C)C)n1 [HG-5-88-01] + CCNC(=O)c1noc(-c2cc(C(C)C)c(O)cc2O)c1-c1ccc(CN2CCOCC2)cc1 [Luminespib] (partner 0.01 µM) ... 1.12
Clc1ccc(Nc2nnc(Cc3ccncc3)c3ccccc23)cc1 [Vatalanib] + Cc1nc(NC(=O)N2CCC[C@H]2C(N)=O)sc1-c1ccnc(C(C)(C)C(F)(F)F)c1 [Alpelisib] (partner 2 µM) ... 1.22
Clc1ccc(Nc2nnc(Cc3ccncc3)c3ccccc23)cc1 [Vatalanib] + CS(=O)(=O)N1CCN(Cc2cc3nc(-c4cccc5[nH]ncc45)nc(N4CCOCC4)c3s2)CC1 [Pictilisib] (partner 1 µM) ... 0.885

// query relative viability value for entry Clc1ccc(Nc2nnc(Cc3ccncc3)c3ccccc23)cc1 [Vatalanib] + Nc1ncn([C@H]2C[C@H](O)[C@@H](CO)O2)c(=O)n1 [Decitabine] (partner 2 µM)
0.396

Reported relative viability for C[C@@H]1CN(CC(=O)Nc2ccc3c(c2)Cc2cccc(-c4cc(=O)cc(N5CCOCC5)o4)c2S3)C[C@H](C)O1 + O=C(c1cc(Cc2n[nH]c(=O)c3ccccc23)ccc1F)N1CCN(C(=O)C2CC2)CC1 [Olaparib] (partner 8 µM) : what is it?
0.274

For COc1cc(N2CCC(C(N)=O)CC2)ccc1Nc1nc(N)c(Cl)c(Nc2ccccc2S(=O)(=O)C(C)C)n1 [HG-5-88-01] + Cc1nc(Nc2ncc(C(=O)Nc3c(C)cccc3Cl)s2)cc(N2CCN(CCO)CC2)n1 [Dasatinib] (partner 0.075 µM) , what is its reported relative viability?
0.156

Bench note: what relative viability did C[C@@H]1CN(CC(=O)Nc2ccc3c(c2)Cc2cccc(-c4cc(=O)cc(N5CCOCC5)o4)c2S3)C[C@H](C)O1 + N=C(N)NC(=N)NCCc1ccccc1 [Phenformin] (partner 250 µM) show?
0.384

----------
Below: a set of entries, each annotated with reported relative viability.
# Tested on: NCI-H1651
# ASSAY EXPLANATION: relative viability (nuclei count vs DMSO), 5 days (fraction); higher = more cells survive
# MEASUREMENT SETUP: first compound 1.265 µM
# answer = number (no unit)

Clc1ccc(Nc2nnc(Cc3ccncc3)c3ccccc23)cc1 [Vatalanib] + O=C(CCCCCCC(=O)Nc1ccccc1)NO [Vorinostat] (partner 1 µM) ... 0.524

Fill blank: measured relative viability of the compound COc1cc(N2CCC(C(N)=O)CC2)ccc1Nc1nc(N)c(Cl)c(Nc2ccccc2S(=O)(=O)C(C)C)n1 [HG-5-88-01] + NC(=O)Nc1cc(-c2cccc(F)c2)sc1C(=O)N[C@H]1CCCNC1 [AZD7762] (partner 0.2 µM) is ____.
0.342

I would be grateful if you could share the reported relative viability for Clc1ccc(Nc2nnc(Cc3ccncc3)c3ccccc23)cc1 [Vatalanib] + CC(=O)c1c(C)c2cnc(Nc3ccc(N4CCNCC4)cn3)nc2n(C2CCCC2)c1=O [Palbociclib] (partner 0.5 µM) .
0.532

Any idea what relative viability was measured for Clc1ccc(Nc2nnc(Cc3ccncc3)c3ccccc23)cc1 [Vatalanib] + Nc1nc2[nH]cc(CCc3ccc(C(=O)N[C@@H](CCC(=O)O)C(=O)O)cc3)c2c(=O)[nH]1 [Pemetrexed] (partner 0.2 µM) ?
0.543

May I ask what relative viability has been recorded for COc1cc(N2CCC(C(N)=O)CC2)ccc1Nc1nc(N)c(Cl)c(Nc2ccccc2S(=O)(=O)C(C)C)n1 [HG-5-88-01] + CCNC(=O)c1noc(-c2cc(C(C)C)c(O)cc2O)c1-c1ccc(CN2CCOCC2)cc1 [Luminespib] (partner 0.01 µM) ?
0.771

----------
Each record here notes measured relative viability.
# Test system: NCI-H1437
# ASSAY EXPLANATION: relative viability (nuclei count vs DMSO), 5 days (fraction); higher = more cells survive
# MEASUREMENT SETUP: first compound 0.04 µM
Keep the answer to the number alone.

Use the examples below as a reference point.
Clc1ccc(Nc2nnc(Cc3ccncc3)c3ccccc23)cc1 [Vatalanib] + Cc1nc(NC(=O)N2CCC[C@H]2C(N)=O)sc1-c1ccnc(C(C)(C)C(F)(F)F)c1 [Alpelisib] (partner 2 µM) ... 0.975
COc1cc(N2CCC(C(N)=O)CC2)ccc1Nc1nc(N)c(Cl)c(Nc2ccccc2S(=O)(=O)C(C)C)n1 [HG-5-88-01] + O=C(c1cc(Cc2n[nH]c(=O)c3ccccc23)ccc1F)N1CCN(C(=O)C2CC2)CC1 [Olaparib] (partner 8 µM) ... 0.645
COc1cc(N2CCC(C(N)=O)CC2)ccc1Nc1nc(N)c(Cl)c(Nc2ccccc2S(=O)(=O)C(C)C)n1 [HG-5-88-01] + COc1cccc2cc(-c3nc([C@H]4CC[C@H](C(=O)O)CC4)n4ncnc(N)c34)[nH]c12 [OSI-027] (partner 0.5 µM) ... 0.836
Clc1ccc(Nc2nnc(Cc3ccncc3)c3ccccc23)cc1 [Vatalanib] + Cc1nc(Nc2ncc(C(=O)Nc3c(C)cccc3Cl)s2)cc(N2CCN(CCO)CC2)n1 [Dasatinib] (partner 0.075 µM) ... 0.399
C[C@@H]1CN(CC(=O)Nc2ccc3c(c2)Cc2cccc(-c4cc(=O)cc(N5CCOCC5)o4)c2S3)C[C@H](C)O1 + Cc1nc(NC(=O)N2CCC[C@H]2C(N)=O)sc1-c1ccnc(C(C)(C)C(F)(F)F)c1 [Alpelisib] (partner 2 µM) ... 1.04
Clc1ccc(Nc2nnc(Cc3ccncc3)c3ccccc23)cc1 [Vatalanib] + CC(=O)c1c(C)c2cnc(Nc3ccc(N4CCNCC4)cn3)nc2n(C2CCCC2)c1=O [Palbociclib] (partner 0.5 µM) ... 0.309

Which value of relative viability has been reported for Clc1ccc(Nc2nnc(Cc3ccncc3)c3ccccc23)cc1 [Vatalanib] + N=C(N)NC(=N)NCCc1ccccc1 [Phenformin] (partner 250 µM) in the records?
0.341

I would be grateful if you could share the reported relative viability for C[C@@H]1CN(CC(=O)Nc2ccc3c(c2)Cc2cccc(-c4cc(=O)cc(N5CCOCC5)o4)c2S3)C[C@H](C)O1 + CC(C)C[C@H](NC(=O)[C@H](Cc1ccccc1)NC(=O)c1cnccn1)B(O)O [Bortezomib] (partner 0.002 µM) .
0.486

Which relative viability value is on record for C[C@@H]1CN(CC(=O)Nc2ccc3c(c2)Cc2cccc(-c4cc(=O)cc(N5CCOCC5)o4)c2S3)C[C@H](C)O1 + Nc1nc2[nH]cc(CCc3ccc(C(=O)N[C@@H](CCC(=O)O)C(=O)O)cc3)c2c(=O)[nH]1 [Pemetrexed] (partner 0.2 µM) ?
0.402

----------
# System: NCI-H460
# ASSAY EXPLANATION: relative viability (nuclei count vs DMSO), 5 days (fraction); higher = more cells survive
# MEASUREMENT SETUP: first compound 0.04 µM
RESULT TYPE: relative viability

Here's what some known entries look like.
C[C@@H]1CN(CC(=O)Nc2ccc3c(c2)Cc2cccc(-c4cc(=O)cc(N5CCOCC5)o4)c2S3)C[C@H](C)O1 + N=C(N)NC(=N)NCCc1ccccc1 [Phenformin] (partner 250 µM) ... 0.566
Clc1ccc(Nc2nnc(Cc3ccncc3)c3ccccc23)cc1 [Vatalanib] + O=C(c1cc(Cc2n[nH]c(=O)c3ccccc23)ccc1F)N1CCN(C(=O)C2CC2)CC1 [Olaparib] (partner 8 µM) ... 0.4
C[C@@H]1CN(CC(=O)Nc2ccc3c(c2)Cc2cccc(-c4cc(=O)cc(N5CCOCC5)o4)c2S3)C[C@H](C)O1 + CC(=O)Nc1cccc(-n2c(=O)n(C3CC3)c(=O)c3c(Nc4ccc(I)cc4F)n(C)c(=O)c(C)c32)c1 [Trametinib] (partner 0.02 µM) ... 0.155

What value of relative viability on NCI-H460 does Clc1ccc(Nc2nnc(Cc3ccncc3)c3ccccc23)cc1 [Vatalanib] + CC(C)C[C@H](NC(=O)[C@H](Cc1ccccc1)NC(=O)c1cnccn1)B(O)O [Bortezomib] (partner 0.002 µM) have?
1.07
